molecular target: HLA-A*02:12; assay: IEDB peptide-MHC binding, purified MHC/direct/fluorescence; filed as Kd, often an IC50 or EC50 that approximates it; bounds were set here for any values at or beyond the usual limits of such assays; settings: source organism: Hantaanvirus CGRn93P8
pKd: −log10 of the molar value.

[
  {
    "biopolymer.sequence": "QMISPVMSV",
    "pKd": 8.52
  }
]

----------
Quick list: log10(Kd) per entry.
biological target: HLA-A*68:02; test: IEDB peptide-MHC binding, purified MHC/competitive/radioactivity; filed as Kd, often an IC50 or EC50 that approximates it; bounds were set here for any values at or beyond the usual limits of such assays; conditions: source organism: Trypanosoma cruzi
measured.parameter: log10(Kd) (log10 of the value in µM)

[
  {
    "biopolymer.sequence": "FANYKFTLV",
    "result.value": -1.75
  },
  {
    "biopolymer.sequence": "RVSRPTTVV",
    "result.value": -0.70
  },
  {
    "biopolymer.sequence": "ELLRPTTVV",
    "result.value": -1.04
  },
  {
    "biopolymer.sequence": "FANYNFTLL",
    "result.value": -3.82
  },
  {
    "biopolymer.sequence": "SLNRNFTLV",
    "result.value": -0.64
  }
]
